- System: UniProtKB P35348
- Sequence (P35348 whole entry): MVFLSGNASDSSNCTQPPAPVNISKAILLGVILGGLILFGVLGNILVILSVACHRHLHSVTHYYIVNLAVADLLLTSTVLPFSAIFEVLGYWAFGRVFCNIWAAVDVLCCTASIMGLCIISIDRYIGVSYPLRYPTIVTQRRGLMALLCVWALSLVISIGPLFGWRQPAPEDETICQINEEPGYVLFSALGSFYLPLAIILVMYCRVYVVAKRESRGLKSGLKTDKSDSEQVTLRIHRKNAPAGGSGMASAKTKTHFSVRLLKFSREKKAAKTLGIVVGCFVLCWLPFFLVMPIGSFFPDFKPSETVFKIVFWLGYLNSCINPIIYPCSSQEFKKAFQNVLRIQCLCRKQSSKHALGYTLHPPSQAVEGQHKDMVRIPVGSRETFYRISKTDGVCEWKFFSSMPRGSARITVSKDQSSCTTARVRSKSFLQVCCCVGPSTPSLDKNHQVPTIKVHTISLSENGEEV
- Assay Comment: aequorin luminescence calcium assay, antagonist mode against phenylephrine, cells stably expressing human α1A-adrenoceptor
Parameter: IC50 (nM)
Value expressed in nM; do not type the unit.

IN: What IC50 value was documented for this compound, COc1ccccc1N1CCN(CCCOc2c(C)cccc2C)CC1 ?
OUT: 1.42
